Tested on: Escherichia coli
Format: cell-based
Bridge positions count the residues as written; N and C are the ends. Square brackets hold non-standard residues; d marks the D form. Peptide text beside a SMILES is read from it. * marks the point of attachment. X16 = Cc1cc(C)cc(CO[C@@H](CCN)C(=O)*)c1; dCha = N[C@H](CC1CCCCC1)C(=O)O; X28 = NCCC(C(=O)*)c1ccccc1Cl; Dab = NCC[C@H](N)C(=O)O; Dap = NC[C@H](N)C(=O)O
metric: MIC E. coli 058 (µg/mL)
Give bare numbers, in µg/mL.

Recorded MIC E. coli 058, per entry:
{"columns": ["compound", "MIC E. coli 058 / µg/mL"],
 "data": [
  ["CC(C)C[C@@H]1NC(=O)[C@@H](CC2CCCCC2)NC(=O)[C@H](CCN)NC(=O)[C@@H](NC(=O)[C@H](CN)NC(=O)[C@@H](NC(=O)C(CCN)c2ccccc2Cl)[C@@H](C)O)CCNC(=O)[C@H]([C@@H](C)O)NC(=O)[C@H](CCN)NC(=O)[C@H](CCN)NC1=O (stereo partly drawn) [Example 76] (X28-T[Dap][Dab][Dab][dCha]L[Dab][Dab]T; lactam 3-C)", 8],
  ["Cc1cc(C)cc(CO[C@@H](CCN)C(=O)N[C@H](C(=O)N[C@@H](CN)C(=O)N[C@H]2CCNC(=O)[C@H]([C@@H](C)O)NC(=O)[C@H](CCN)NC(=O)[C@H](CCN)NC(=O)[C@H](CC(C)C)NC(=O)[C@@H](CC3CCCCC3)NC(=O)[C@H](CCN)NC2=O)[C@@H](C)O)c1 [Example 90] (X16-T[Dap][Dab][Dab][dCha]L[Dab][Dab]T; lactam 3-C)", 2]
]}

Read the next record carefully.
Can you look up the measured MIC E. coli 058 of CCCCCCCCC1CNCC1C(=O)N[C@H](C(=O)N[C@@H](CCN)C(=O)N[C@H]1CCNC(=O)[C@H]([C@@H](C)O)NC(=O)[C@H](CCN)NC(=O)[C@H](CCN)NC(=O)[C@H](CC(C)C)NC(=O)[C@@H](Cc2ccccc2-c2ccccc2)NC(=O)[C@H](CCN)NC1=O)C(C)O (single isomer, unassigned; isomer 2) [Example 10] for me?
1

* * *

Tested on: Klebsiella pneumoniae
Format: cell-based
Numbered stars: 1 amine (or outer) side, 2 acyl side, 3 side chain; on linkers, the order of the positions; unused ones are H or OH. Bridge positions count the residues as written; N and C are the ends. Square brackets hold non-standard residues; d marks the D form. Peptide text beside a SMILES is read from it. * marks the point of attachment. ξ: configuration not given here. X12 = O=C([C@@H](Cc1ccc(C2CCCCC2)cc1)N[*:1])[*:2]; dPhe(4-CN) = N#Cc1ccc(C[C@@H](N)C(=O)O)cc1; X17 = CCCCCCN([C@@H](CCN)C(=O)[*:2])[*:1]; Octanoyl(6-Me) = CCC(C)CCCCC(=O)*; dCha = N[C@H](CC1CCCCC1)C(=O)O; Thr(3ξ) = CC(O)[C@H](N)C(=O)O; X1 = CC(C)CN1CCNC[C@H]1C(=O)*; X25 = CCCCO[C@@H](CCN)C(=O)*; Dab = NCC[C@H](N)C(=O)O; Dap = NC[C@H](N)C(=O)O; X2 = CC(C)CC(CN)C(=O)*
metric: MIC K. pneumoniae 063

Recorded MIC K. pneumoniae 063, per entry:
{"columns": ["compound", "measured-target", "test-value"],
 "data": [
  ["CCC(C)CCCCC(=O)N[C@@H](CCN)C(=O)N[C@H](C(=O)N[C@@H](CCN)C(=O)N[C@H]1CCNC(=O)[C@H]([C@@H](C)O)NC(=O)[C@H](CCN)NC(=O)[C@H](CCN)NC(=O)[C@H](CC(C)C)NC(=O)[C@@H](Cc2ccc(C#N)cc2)NC(=O)[C@H](CCN)NC1=O)C(C)O (stereo partly drawn) [Example 24, Polymyxin B[D-(4-cyano)Phe]-6] ({Octanoyl(6-Me)}-[Dab][Thr(3ξ)][Dab][Dab][Dab][dPhe(4-CN)]L[Dab][Dab]T; lactam 4-C)", "Klebsiella pneumoniae", "64 µg/mL"],
  ["CCCCCC/C=C/c1ccc(C[C@H]2NC(=O)[C@H](CCN)NC(=O)[C@@H](NC(=O)[C@H](CN)NC(=O)[C@@H](NC(=O)C3CNCC(CC(C)C)C3)C(C)O)CCNC(=O)[C@H]([C@@H](C)O)NC(=O)[C@H](CCN)NC(=O)[C@H](CCN)NC(=O)[C@H](CC(C)C)NC2=O)cc1 (single isomer, unassigned; isomer 1) [Example 17]", "Klebsiella pneumoniae", "16 µg/mL"],
  ["CC(C)C[C@@H]1NC(=O)[C@@H](CC2CCCCC2)NC(=O)[C@H](CCN)NC(=O)[C@@H](NC(=O)[C@H](CCN)NC(=O)[C@@H](NC(=O)C(CCN)c2ccccc2)[C@@H](C)O)CCNC(=O)[C@H]([C@@H](C)O)NC(=O)[C@H](CCN)NC(=O)[C@H](CCN)NC1=O (single isomer, unassigned; isomer 2)", "Klebsiella pneumoniae", "64 µg/mL"],
  ["CC(C)CC1CNCC(C(=O)N[C@H](C(=O)N[C@@H](CN)C(=O)N[C@H]2CCNC(=O)[C@H]([C@@H](C)O)NC(=O)[C@H](CCN)NC(=O)[C@H](CCN)NC(=O)[C@H](CC(C)C)NC(=O)[C@@H](Cc3ccc(-c4ccccc4)cc3)NC(=O)[C@H](CCN)NC2=O)C(C)O)C1 (single isomer, unassigned; isomer 1) [Example 3]", "Klebsiella pneumoniae", ">64 µg/mL"],
  ["CC(C)C[C@@H]1NC(=O)[C@@H](CC2CCCCC2)NC(=O)[C@H](CCN)NC(=O)[C@@H](NC(=O)[C@H](CN)NC(=O)[C@@H](NC(=O)CC(N)C2CCCCC2)C(C)O)CCNC(=O)[C@H]([C@@H](C)O)NC(=O)[C@H](CCN)NC(=O)[C@H](CCN)NC1=O (single isomer, unassigned; isomer 2) [Example 33]", "Klebsiella pneumoniae", "64 µg/mL"],
  ["CCCCC(CCN)C(=O)N[C@H](C(=O)N[C@@H](CN)C(=O)N[C@H]1CCNC(=O)[C@H]([C@@H](C)O)NC(=O)[C@H](CCN)NC(=O)[C@H](CCN)NC(=O)[C@H](CC(C)C)NC(=O)[C@@H](CC2CCCCC2)NC(=O)[C@H](CCN)NC1=O)[C@@H](C)O (single isomer, unassigned; isomer 2)", "Klebsiella pneumoniae", "16 µg/mL"]
]}

I would be grateful if you could provide MIC K. pneumoniae 063 for each of the following entries.
1. CC(C)CC(CN)C(=O)N[C@H](C(=O)N[C@@H](CN)C(=O)N[C@H]1CCNC(=O)[C@H]([C@@H](C)O)NC(=O)[C@H](CCN)NC(=O)[C@H](CCN)NC(=O)[C@H](CC(C)C)NC(=O)[C@@H](Cc2ccc(C3CCCCC3)cc2)NC(=O)[C@H](CCN)NC1=O)C(C)O (some centres unmarked) [Example 27] (X2-[Thr(3ξ)][Dap][Dab][Dab][X12]L[Dab][Dab]T; lactam 3-C)
2. CCCCCCN[C@@H](CCN)C(=O)N[C@H](C(=O)N[C@@H](CN)C(=O)N[C@H]1CCNC(=O)[C@H]([C@@H](C)O)NC(=O)[C@H](CCN)NC(=O)[C@H](CCN)NC(=O)[C@H](CC(C)C)NC(=O)[C@@H](CC2CCCCC2)NC(=O)[C@H](CCN)NC1=O)C(C)O (some centres unmarked) [Example 49] (H-[X17][Thr(3ξ)][Dap][Dab][Dab][dCha]L[Dab][Dab]T; lactam 4-C)
3. CC(C)C[C@@H]1NC(=O)[C@@H](CC2CCCCC2)NC(=O)[C@H](CCN)NC(=O)[C@@H](NC(=O)[C@H](CCN)NC(=O)[C@@H](NC(=O)[C@@H]2CNCCN2CC(C)C)C(C)O)CCNC(=O)[C@H]([C@@H](C)O)NC(=O)[C@H](CCN)NC(=O)[C@H](CCN)NC1=O (some centres unmarked) [Example 52] (X1-[Thr(3ξ)][Dab][Dab][Dab][dCha]L[Dab][Dab]T; lactam 3-C)

1: 8 µg/mL; 2: 32 µg/mL; 3: 64 µg/mL

I would be grateful if you could provide MIC K. pneumoniae 063 for each of the following entries.
1. CCC(C)CCCCC(=O)N[C@@H](CCN)C(=O)N[C@H](C(=O)N[C@@H](CCN)C(=O)N[C@H]1CCNC(=O)[C@H](C(C)O)NC(=O)[C@H](CCN)NC(=O)[C@H](CCN)NC(=O)[C@H](CC(C)C)NC(=O)[C@@H](CC2CCCCC2)NC(=O)[C@H](CCN)NC1=O)C(C)O (some centres unmarked) [Example 22] ({Octanoyl(6-Me)}-[Dab][Thr(3ξ)][Dab][Dab][Dab][dCha]L[Dab][Dab][Thr(3ξ)]; lactam 4-C)
2. CCCCO[C@@H](CCN)C(=O)N[C@H](C(=O)N[C@@H](CN)C(=O)N[C@H]1CCNC(=O)[C@H]([C@@H](C)O)NC(=O)[C@H](CCN)NC(=O)[C@H](CCN)NC(=O)[C@H](CC(C)C)NC(=O)[C@@H](CC2CCCCC2)NC(=O)[C@H](CCN)NC1=O)C(C)O (some centres unmarked) [Example 46] (X25-[Thr(3ξ)][Dap][Dab][Dab][dCha]L[Dab][Dab]T; lactam 3-C)

["32 µg/mL", ">64 µg/mL"]
